target: Nuclear receptor subfamily 1 group D member 1 (Homo sapiens); assay: modulators of Rev-erb alpha DNA binding, dose response, biochemical, FITC-DNA, fluorescence polarization (AID 1259321)
Activity calls are given as the source filed them.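 Rule for the calls: active = half-maximal concentration for changing protein binding to DNA, from the fitted dose curve, below 10 micromolar; inactive = the rest.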
Pick from active, inactive when you respond.

* COC(=O)Cn1c(C)c(/C=C/c2cc[n+](C)cc2)c2ccccc21 | active
* NS(=O)(=O)c1ccc(CCNC(=O)c2cc(-c3ccccn3)nc3ccc(Br)cc23)cc1 | active
* CCOCCCn1c(=S)[nH]c2cc(C(=O)NCCc3ccccc3)ccc2c1=O | active

Could you check what this test reported for CCCSc1nc(SCC(=O)NCc2ccccc2)c2c3c(sc2n1)COC(C)(CC)C3 (stereo unspecified) ?
inactive

Could you check what this test reported for Cc1ccc(-c2nc(NC(=O)CSc3cc(C)c4ccccc4n3)ns2)cc1 ?
active

Could you check what this test reported for COC(=O)c1cccc(Cn2ccc3ccc(-c4ccc5ccn(C(=O)c6ccc(C)cc6)c5c4)cc32)c1 ?
inactive

Could you check what this test reported for COc1cc(/C=N/NC(=O)c2c(C)nc3ccc(Cl)cn23)cc(OC)c1OC ?
inactive

Could you check what this test reported for CC(=O)c1cc2c(cc1N/C(=N/S(=O)(=O)c1ccccc1)c1ccc(Cl)cc1)OCO2 ?
inactive

Could you check what this test reported for Cc1n[nH]c(C)c1N1C(=O)c2cccc3c(N4CCCCCC4)ccc(c23)C1=O ?
active

Could you check what this test reported for CC(C)Cc1nc2sc3c(SCC(N)=O)ncnc3c2c2c1CCC2 ?
active

Could you check what this test reported for COc1ccc(C(=O)c2ccc(OC)c(Br)c2)cc1Br ?
inactive

Could you check what this test reported for COc1ccc(NC(=O)NNC(=O)COc2ccc3cc(Br)ccc3c2)c(OC)c1 ?
inactive

Could you check what this test reported for COC(=O)c1ccc(Cn2ccc3ccc(-c4ccc5ccn(C(=O)c6cccc(OC)c6)c5c4)cc32)cc1 ?
inactive

Could you check what this test reported for Cc1cnc(NC(=O)c2cc3c(C)nn(-c4ccccc4)c3s2)s1 ?
active
